B1: TNNI2 (parent)
chain: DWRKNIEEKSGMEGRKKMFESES

Variants of: B1
Test: protein stability index of a GFP-peptide fusion (GPS, HEK-293T) (PSI 1-6); higher = more stable;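 also: lentivirally expressed fusions sorted by FACS into six bins by GFP to DsRed ratio, PSI derived from sequencing read proportions per bin multiplied by bin number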
Details: c terminus: native
Where protein stability index equals or exceeds 3, the correct label is yes; where it does not, the label is no.

Given the entry `W2Q` , answer whether its protein stability index meets or surpasses 3.
yes

Given the entry `R15E` , answer whether its protein stability index meets or surpasses 3.
no

Given the entry `N5C` , answer whether its protein stability index meets or surpasses 3.
no

Given the entry `K4L` , answer whether its protein stability index meets or surpasses 3.
no

Given the entry `R3F` , answer whether its protein stability index meets or surpasses 3.
no

Given the entry `E13C` , answer whether its protein stability index meets or surpasses 3.
no

Given the entry `K4N` , answer whether its protein stability index meets or surpasses 3.
yes

Given the entry `N5M` , answer whether its protein stability index meets or surpasses 3.
no

Given the entry `G11K` , answer whether its protein stability index meets or surpasses 3.
yes

Given the entry `S23I` , answer whether its protein stability index meets or surpasses 3.
no

Given the entry `I6C` , answer whether its protein stability index meets or surpasses 3.
no

Given the entry `D1P` , answer whether its protein stability index meets or surpasses 3.
no

Given the entry `E22Q` , answer whether its protein stability index meets or surpasses 3.
yes

Given the entry `K17L` , answer whether its protein stability index meets or surpasses 3.
no

Given the entry `R3P` , answer whether its protein stability index meets or surpasses 3.
no

Given the entry `W2D` , answer whether its protein stability index meets or surpasses 3.
yes

Given the entry `K16Q` , answer whether its protein stability index meets or surpasses 3.
no

Given the entry `R15A` , answer whether its protein stability index meets or surpasses 3.
no

Given the entry `M18N` , answer whether its protein stability index meets or surpasses 3.
yes

Given the entry `E8F` , answer whether its protein stability index meets or surpasses 3.
no

The reported measurements were obtained from the supplement of paper PMC10567573.
